# ASSAYED TARGET: UniProt:P9WJN1
# Sequence (P9WJN1 whole entry): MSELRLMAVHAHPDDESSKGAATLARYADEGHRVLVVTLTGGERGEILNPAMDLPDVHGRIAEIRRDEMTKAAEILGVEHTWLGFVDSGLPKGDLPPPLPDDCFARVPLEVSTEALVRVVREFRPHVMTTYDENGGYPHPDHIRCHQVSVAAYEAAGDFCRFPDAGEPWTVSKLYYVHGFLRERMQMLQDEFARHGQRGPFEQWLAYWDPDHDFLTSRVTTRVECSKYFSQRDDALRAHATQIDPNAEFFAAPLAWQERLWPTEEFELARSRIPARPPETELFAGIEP
Reported IC50 is given for each of the following compounds.

- COMPOUND: "CN1C(=O)[C@]23CC4=CC=C[C@H](O)[C@H]4N2C(=O)[C@@]1(CO)SS3 [GLIOTOXIN]"
  IC50 / µM: 50
- COMPOUND: "CS[C@]1(Cc2c[nH]c3ccccc23)NC(=O)[C@](CO)(SC)N(C)C1=O [CHETOSEMINUDIN B]"
  IC50 / µM: 70

----------
Reported selectivity ratio is given for each of the following compounds.
# TEST: Selectivity index, ratio of IC50 for human Jurkat cells to IC50 for Trypanosoma brucei brucei
# Type: toxicity, cell-based
# CONDITION SET: Jurkat cells, read-out: Ratio IC50

- RECORD SMILES: "CS[C@]1(CO)C(=O)N2[C@H]3C(=CC=C[C@@H]3O)C[C@@]2(SC)C(=O)N1C"
  selectivity ratio: 3.5
- RECORD SMILES: "COc1ccc2c3c4n(c2c1)[C@H](C=C(C)C)OOC(C)(C)C[C@@H]4N1C(=O)[C@@H]2CCCN2C(=O)[C@]1(O)[C@H]3O"
  selectivity ratio: 7.5

----------
# System: A549
# TEST: Cytotoxicity against human A549 cells
# Format: functional, cell-based
pIC50: −log10 of the molar value.
REPORTED ENDPOINT: pIC50

- RECORD SMILES: "CN1C(=O)[C@]23CC4=CC=C[C@H](O)[C@H]4N2C(=O)[C@@]1(CO)SS3"
  LT GT EQ: "="
  NUMERIC VALUE: 8.52
- RECORD SMILES: "CN1C(=O)[C@@]23C[C@]4([C@]56C[C@@]78SS[C@@](CO)(C(=O)N7[C@H]5Nc5ccccc56)N(C)C8=O)c5ccccc5N[C@@H]4N2C(=O)[C@]1(CO)SS3"
  LT GT EQ: ">"
  NUMERIC VALUE: 7.60

Hey, just so you know, these numbers are from ChEMBL document CHEMBL1156161.
